// provenance: PubChem BioAssay (NCI)

Test system: MCF7 breast
Assay: NCI-60 one-dose screen, 48 h (100 = growth as untreated, 0 = no growth, -100 = all killed)
Conditions: 10 µM
This is part of a sample that, as a whole, favours compounds with a hit. Of some 83,000 tested, about 20% had one in any assay.
property-label: growth (%)
Your answer should be a plain number; it is taken to be in %.

Some solved entries appear below for comparison.
Find the measured growth of `O=C(/C=C/c1ccccc1Cl)c1nc2ccccc2n1Cc1ccc(F)cc1` and report it.
-59.3

Find the measured growth of CCOP(=O)(OCC)C(NC(C)=O)C(=O)SCCN (stereo unspecified) and report it.
95.5

Find the measured growth of `COc1cc(OC)c(/C=C/C(=O)c2nc3ccccc3n2Cc2ccc(F)cc2)c(OC)c1` and report it.
56.1

Find the measured growth of `C[C@H]1[C@@H](CC(=O)N[C@@H](Cc2coc3ccccc23)B(O)O)O[C@@H]2OC3(C)CC[C@H]4[C@H](C)CC[C@@H]1[C@@]24OO3` and report it.
12

Find the measured growth of `CC1=C(CCC=O)C2=C(C)C3(CC3)[C@@](C)(O)C(=O)C2=C1` and report it.
-44.2

Continuing:
Find the measured growth of `CC(C)N=C([Se])NC(=O)c1cccs1` and report it.
1.79
